- Target: α5β2γ2 subtype GABAAR (Homo sapiens, UniProt P18507+P31644)
- Construct: expressed in transfected cells
- Sequence (P31644 32-462): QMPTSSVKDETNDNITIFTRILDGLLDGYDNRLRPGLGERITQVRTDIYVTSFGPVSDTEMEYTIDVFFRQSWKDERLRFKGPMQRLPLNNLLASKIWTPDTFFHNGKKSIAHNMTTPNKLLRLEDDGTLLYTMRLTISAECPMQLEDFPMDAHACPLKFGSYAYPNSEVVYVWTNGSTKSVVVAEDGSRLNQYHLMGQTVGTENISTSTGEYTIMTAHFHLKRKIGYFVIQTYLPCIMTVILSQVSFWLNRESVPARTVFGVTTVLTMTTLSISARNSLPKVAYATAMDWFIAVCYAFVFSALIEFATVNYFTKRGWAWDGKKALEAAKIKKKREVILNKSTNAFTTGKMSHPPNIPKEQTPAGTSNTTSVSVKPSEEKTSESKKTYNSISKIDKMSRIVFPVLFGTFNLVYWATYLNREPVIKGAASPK
- Sequence (P47870 25-512 partner limits assumed): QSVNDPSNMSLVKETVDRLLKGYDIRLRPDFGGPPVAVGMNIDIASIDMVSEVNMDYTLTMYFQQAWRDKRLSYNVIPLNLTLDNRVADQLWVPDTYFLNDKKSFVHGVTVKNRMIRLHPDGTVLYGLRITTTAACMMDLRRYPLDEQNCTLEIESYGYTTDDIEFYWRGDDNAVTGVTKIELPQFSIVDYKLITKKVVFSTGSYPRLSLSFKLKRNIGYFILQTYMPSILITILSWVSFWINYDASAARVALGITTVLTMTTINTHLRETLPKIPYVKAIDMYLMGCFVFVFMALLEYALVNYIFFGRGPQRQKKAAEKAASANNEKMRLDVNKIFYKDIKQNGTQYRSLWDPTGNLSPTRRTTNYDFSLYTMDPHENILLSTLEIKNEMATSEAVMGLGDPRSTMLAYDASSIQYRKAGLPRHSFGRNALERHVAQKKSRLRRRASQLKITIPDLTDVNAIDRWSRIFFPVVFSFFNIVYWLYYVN
- Sequence (P18507 40-467 limits assumed): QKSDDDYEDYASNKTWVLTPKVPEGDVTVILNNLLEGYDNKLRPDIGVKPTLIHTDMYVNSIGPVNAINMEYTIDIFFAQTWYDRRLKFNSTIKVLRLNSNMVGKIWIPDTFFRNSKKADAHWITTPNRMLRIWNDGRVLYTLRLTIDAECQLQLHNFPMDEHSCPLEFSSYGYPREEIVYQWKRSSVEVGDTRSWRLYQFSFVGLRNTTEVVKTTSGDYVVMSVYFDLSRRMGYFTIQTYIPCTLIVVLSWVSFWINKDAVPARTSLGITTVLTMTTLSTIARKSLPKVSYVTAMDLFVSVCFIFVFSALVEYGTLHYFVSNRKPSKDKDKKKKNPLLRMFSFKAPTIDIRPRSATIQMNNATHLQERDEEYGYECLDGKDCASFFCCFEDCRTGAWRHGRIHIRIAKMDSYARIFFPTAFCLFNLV
- Assay method text: Positive allosteric modulator activity: potentiation of EC20 GABA current in oocytes
- Format: cell-based
- Run parameters: read-out: GABA α5 Functional Data (potentiation), @ 100 nM, reported as ranges
Task for the reader: assign each of the following molecules its reported activation at 0.1 µM.

See these solved cases before continuing.
{"Molecule": "Clc1ccc2c(c1)-n1nncc1Cc1c(C#Cc3ccccc3)ncn1-2 [Compound 395]", "Observed": "5 to 20%"}
{"Molecule": "C#Cc1ncn2c1Cn1c(COc3ccccc3F)nnc1-c1cc(Cl)ccc1-2 [Compound 353]", "Observed": "> 50%"}
{"Molecule": "COCc1nnc2n1Cc1c(C3=N[C@@H](c4cc(F)ccc4F)CO3)ncn1-c1ccc(Cl)cc1-2 [Compound 335]", "Observed": "5 to 20%"}

# context switch: different molecule, same activation at 0.1 µM
So, COc1ccc2c(c1)-c1nnc(COc3ccccc3)n1Cc1c(C#N)ncn1-2 [Compound 122] ? Its activation at 0.1 µM was 5 to 20%

----------
- Target: α5β2γ2 subtype GABAAR (Homo sapiens, UniProt P18507+P31644)
- Construct: expressed in transfected cells
- Assay method text: Positive allosteric modulator activity: potentiation of EC20 GABA current in oocytes
- Assay type: cell-based
- Run parameters: read-out: GABA α5 Functional Data (potentiation), @ 100 nM, reported as ranges
I'd be grateful if you could share measured activation at 0.1 µM for these entries.

Worked examples follow.
{"Structure string": "FC(F)(F)c1ccc([C@H]2COC(c3ncn4c3Cc3cnnn3-c3cc(Cl)ccc3-4)=N2)cc1", "Target": "α5β2γ2 subtype GABAAR (Homo sapiens, UniProt P18507+P31644)", "Measurement label": "activation at 0.1 µM", "Observed": "20 to 50%"}
{"Structure string": "CCOC(=O)c1ncn2c1Cc1c(Cc3ccc(Cl)cc3)nnn1-c1cc(F)ccc1-2", "Target": "α5β2γ2 subtype GABAAR (Homo sapiens, UniProt P18507+P31644)", "Measurement label": "activation at 0.1 µM", "Observed": "20 to 50%"}
{"Structure string": "COCc1nnc2n1Cc1c(-c3cc(C)no3)ncn1-c1ccc(Cl)cc1-2", "Target": "α5β2γ2 subtype GABAAR (Homo sapiens, UniProt P18507+P31644)", "Measurement label": "activation at 0.1 µM", "Observed": "5 to 20%"}
{"Structure string": "Clc1ccc2c(c1)-n1nncc1Cc1c(C3=N[C@H](c4ccccc4)CO3)ncn1-2", "Target": "α5β2γ2 subtype GABAAR (Homo sapiens, UniProt P18507+P31644)", "Measurement label": "activation at 0.1 µM", "Observed": "20 to 50%"}
{"Structure string": "COc1ccc2c(c1)-c1nnc(COc3cccc(F)c3)n1Cc1c(C#N)ncn1-2", "Target": "α5β2γ2 subtype GABAAR (Homo sapiens, UniProt P18507+P31644)", "Measurement label": "activation at 0.1 µM", "Observed": "20 to 50%"}
{"Structure string": "COCc1nnc2n1Cc1c(-c3nc(C(C)C)no3)ncn1-c1ccc(OC)cc1-2", "Target": "α5β2γ2 subtype GABAAR (Homo sapiens, UniProt P18507+P31644)", "Measurement label": "activation at 0.1 µM", "Observed": "20 to 50%"}
{"Structure string": "COCc1nnc2n1Cc1c(C#CCc3cccc(OC(F)(F)F)c3)ncn1-c1ccc(Cl)cc1-2", "Target": "α5β2γ2 subtype GABAAR (Homo sapiens, UniProt P18507+P31644)", "Measurement label": "activation at 0.1 µM", "Observed": "5 to 20%"}
{"Structure string": "COc1ccc2c(c1)-n1nnc(Cc3ccccc3)c1Cc1c(C#N)ncn1-2", "Target": "α5β2γ2 subtype GABAAR (Homo sapiens, UniProt P18507+P31644)", "Measurement label": "activation at 0.1 µM", "Observed": "20 to 50%"}

Provide reported activation at 0.1 µM for each item, in the same order as listed.
1. COCc1nnc2n1Cc1c(C3=N[C@@H](c4ccc(F)cc4)CO3)ncn1-c1ccc(Cl)cc1-2
2. Fc1ccccc1OCc1nnc2n1Cc1c(-c3ncco3)ncn1-c1ccc(Cl)cc1-2
3. COCc1nnc2n1Cc1c(-c3nc(C)co3)ncn1-c1ccc(Cl)cc1-2
4. COCc1nnc2n1Cc1c(C3=N[C@@H](c4ccc(C(F)(F)F)cc4)CO3)ncn1-c1ccc(Cl)cc1-2
5. CC(C)C#Cc1ncn2c1Cc1cnnn1-c1cc(Cl)ccc1-2
6. Cc1nnn2c1Cc1c(-c3noc(C(C)C)n3)ncn1-c1ccc(F)cc1-2
7. CCOC(=O)c1ncn2c1Cc1c(COc3cccc(OC)c3)nnn1-c1cc(OC)ccc1-2

20 to 50%
20 to 50%
5 to 20%
20 to 50%
20 to 50%
> 50%
20 to 50%

----------
I'd appreciate it if you could supply activation at 0.1 µM values for the items below.
- Target: α5β2γ2 subtype GABAAR (Homo sapiens, UniProt P18507+P31644)
- Construct: expressed in transfected cells
- Assay method text: Positive allosteric modulator activity: potentiation of EC20 GABA current in oocytes
- Type: cell-based
- Run parameters: read-out: GABA α5 Functional Data (potentiation), @ 100 nM, reported as ranges

Use the examples below as a reference point.
{"Structure string": "COc1ccc2c(c1)-c1nnc(COC3CCCC3)n1Cc1c(-c3noc(C(C)C)n3)ncn1-2", "activation at 0.1 µM": "> 50%"}
{"Structure string": "COCc1nnc2n1Cc1c(C3=NCCO3)ncn1-c1ccc(Cl)cc1-2", "activation at 0.1 µM": "20 to 50%"}

Record activation at 0.1 µM for all entries; do not skip any.
1. Cc1cccc(C)c1OCc1nnc2n1Cc1c(-c3noc(C(C)C)n3)ncn1-c1ccc(F)cc1-2
2. Cc1nnn2c1Cc1c(-c3noc(C(C)(C)C)n3)ncn1-c1ccc(F)cc1-2
3. COc1ccc2c(c1)-n1nncc1Cc1c(C#Cc3ccc(C(F)(F)F)cc3)ncn1-2
4. CCC#Cc1ncn2c1Cn1c(COC)nnc1-c1cc(Cl)ccc1-2

["5 to 20%", "> 50%", "20 to 50%", "20 to 50%"]

Value sought for every listed molecule: activation at 0.1 µM.
1. COCc1nnc2n1Cc1c(C3=N[C@@H](c4ccccc4F)CO3)ncn1-c1ccc(Cl)cc1-2
2. FC(F)(F)COCc1nnc2n1Cc1c(C3=N[C@@H](c4ccccc4)CO3)ncn1-c1ccc(Cl)cc1-2

1. 20 to 50%
2. 5 to 20%

Please state activation at 0.1 µM for every molecule in the list that follows.
1. COc1ccc2c(c1)-n1nnc(Cc3cccnc3)c1Cc1c(C#N)ncn1-2
2. Clc1ccc([C@H]2COC(c3ncn4c3Cc3cnnn3-c3cc(Cl)ccc3-4)=N2)cc1
3. Cc1ccccc1C#Cc1ncn2c1Cn1c(COC(C)C)nnc1-c1cc(Cl)ccc1-2
4. CCc1nc(-c2ncn3c2Cn2c(COc4ccccc4)nnc2-c2cc(F)ccc2-3)no1
5. COCc1nnc2n1Cc1c(-c3nc(C)no3)ncn1-c1ccc(Cl)cc1-2
6. CCOC(=O)c1ncn2c1Cc1c(CN(CC)CC)nnn1-c1cc(OC)ccc1-2

["20 to 50%", "20 to 50%", "5 to 20%", "20 to 50%", "20 to 50%", "5 to 20%"]

Hey, can you go through the list below and give me activation at 0.1 µM for every item?
1. CC(C)OCc1nnc2n1Cc1c(C3=N[C@H](c4ccccc4)CO3)ncn1-c1ccc(Cl)cc1-2
2. CC(C)c1nc(-c2ncn3c2Cn2c(COc4cccnc4)nnc2-c2cc(F)ccc2-3)no1

1: 5 to 20%; 2: > 50%

----------
- Target: α5β2γ2 subtype GABAAR (Homo sapiens, UniProt P18507+P31644)
- Construct: expressed in transfected cells
- Assay method text: Positive allosteric modulator activity: potentiation of EC20 GABA current in oocytes
- Assay type: cell-based
- Run parameters: read-out: GABA α5 Functional Data (potentiation), @ 100 nM, reported as ranges
Task for the reader: assign each of the following compounds its reported activation at 0.1 µM.

Below, each entry is followed by its recorded activation at 0.1 µM result.
{"Structure string": "FC(F)c1ncn2c1Cn1c(COc3ccccc3)nnc1-c1cc(Cl)ccc1-2", "activation at 0.1 µM": "5 to 20%"}
{"Structure string": "COc1ccc2c(c1)-c1nnc(COc3ccccc3)n1Cc1c(Br)ncn1-2", "activation at 0.1 µM": "5 to 20%"}
{"Structure string": "COc1ccc2c(c1)-c1nnc(COc3ccccc3)n1Cc1c(-c3noc(C)n3)ncn1-2", "activation at 0.1 µM": "20 to 50%"}
{"Structure string": "Fc1ccc2c(c1)-n1cnc(Br)c1Cc1c(Cc3ccccc3)nnn1-2", "activation at 0.1 µM": "5 to 20%"}
{"Structure string": "COc1ccc2c(c1)-n1nncc1Cc1c(C#CCc3cccc(OC(F)(F)F)c3)ncn1-2", "activation at 0.1 µM": "20 to 50%"}
{"Structure string": "FC(F)=Cc1ncn2c1Cn1c(COc3ccccc3)nnc1-c1cc(Cl)ccc1-2", "activation at 0.1 µM": "20 to 50%"}
{"Structure string": "CCOCc1nnc2n1Cc1c(C3=N[C@H](c4ccccc4)CO3)ncn1-c1ccc(Cl)cc1-2", "activation at 0.1 µM": "> 50%"}
{"Structure string": "COCc1nnc2n1Cc1c(C#CCc3cccc(Cl)c3)ncn1-c1ccc(Cl)cc1-2", "activation at 0.1 µM": "20 to 50%"}
{"Structure string": "CCOC(=O)c1ncn2c1Cc1c(Cc3cccnc3)nnn1-c1cc(C)ccc1-2", "activation at 0.1 µM": "20 to 50%"}
{"Structure string": "COc1ccc2c(c1)-n1nncc1Cc1c(C#CCc3cccc(Cl)c3)ncn1-2", "activation at 0.1 µM": "5 to 20%"}

Please report activation at 0.1 µM for every entry that follows.
1. Cc1nnn2c1Cc1c(-c3nc(C(C)C)no3)ncn1-c1ccccc1-2
2. COCc1nnc2n1Cc1c(-c3nc(C)no3)ncn1-c1ccc(OC)cc1-2
3. COc1ccc2c(c1)-n1nnc(COc3ccccc3)c1Cc1c(-c3noc(C)n3)ncn1-2
4. Clc1ccc2c(c1)-n1nncc1Cc1c(C3=N[C@@H](c4ccccc4)CO3)ncn1-2
5. CCc1nc(-c2ncn3c2Cc2c(Cc4ccccc4)nnn2-c2cc(OC)ccc2-3)no1
6. COc1ccc2c(c1)-n1nnc(COc3ccccc3F)c1Cc1c(C#N)ncn1-2
7. Clc1ccc2c(c1)-c1nnc(COc3ccccc3)n1Cc1c(Br)ncn1-2

1. 20 to 50%
2. 20 to 50%
3. 20 to 50%
4. 20 to 50%
5. > 50%
6. 5 to 20%
7. 20 to 50%

For `COCc1nnc2n1Cc1c(C3=N[C@@H](c4cccc(OC)c4)CO3)ncn1-c1ccc(Cl)cc1-2` the compound record lists activation at 0.1 µM as 5 to 20%
